# settings: [M+H]+; instrument: TW; calibrated with polyalanine and drug standards
measured-property: collision cross section (N2) (Å²)

compound	measurement-unit	collision cross section (N2)
CC(=O)O[C@H]1CC[C@@]2(C)C(C[C@@H](OC(C)=O)[C@@]3(C)C4=CC(=O)O[C@@H](c5ccoc5)[C@]4(C)CCC23)C1(C)C (stereo partly drawn) [3-DEOXO-3beta-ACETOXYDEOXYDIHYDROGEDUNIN]	Å²	219.7
O=C(Oc1cccc2cccnc12)c1ccccc1	Å²	153.8
C=C1CCC2C(CC2(C)C)C(=O)CCC1O (stereo not drawn)	Å²	146
CN(CCOc1ccc(CC2SC(=O)NC2=O)cc1)c1ccccn1 (stereo not drawn)	Å²	172.6
COc1ccc2c(c1)OCc1c-2oc2cc(OC)ccc12 [DEHYDROVARIABILIN]	Å²	159
COc1cc(O)c2c(=O)c(OC)c(-c3ccc(OC)c(OC)c3)oc2c1	Å²	180.8
COc1ccnc(CS(=O)c2nc3ccc(OC(F)F)cc3[nH]2)c1OC (stereo not drawn)	Å²	183.4
O=C(O)c1cccnc1C(=O)O	Å²	130.2
